target.or.test.system: ABCG2 (ATP-binding cassette super-family G member 2, BCRP) (Homo sapiens, UniProt Q9UNQ0)
Construct: ABCG2 in insect cell membrane vesicles
Sequence (Q9UNQ0 1-655): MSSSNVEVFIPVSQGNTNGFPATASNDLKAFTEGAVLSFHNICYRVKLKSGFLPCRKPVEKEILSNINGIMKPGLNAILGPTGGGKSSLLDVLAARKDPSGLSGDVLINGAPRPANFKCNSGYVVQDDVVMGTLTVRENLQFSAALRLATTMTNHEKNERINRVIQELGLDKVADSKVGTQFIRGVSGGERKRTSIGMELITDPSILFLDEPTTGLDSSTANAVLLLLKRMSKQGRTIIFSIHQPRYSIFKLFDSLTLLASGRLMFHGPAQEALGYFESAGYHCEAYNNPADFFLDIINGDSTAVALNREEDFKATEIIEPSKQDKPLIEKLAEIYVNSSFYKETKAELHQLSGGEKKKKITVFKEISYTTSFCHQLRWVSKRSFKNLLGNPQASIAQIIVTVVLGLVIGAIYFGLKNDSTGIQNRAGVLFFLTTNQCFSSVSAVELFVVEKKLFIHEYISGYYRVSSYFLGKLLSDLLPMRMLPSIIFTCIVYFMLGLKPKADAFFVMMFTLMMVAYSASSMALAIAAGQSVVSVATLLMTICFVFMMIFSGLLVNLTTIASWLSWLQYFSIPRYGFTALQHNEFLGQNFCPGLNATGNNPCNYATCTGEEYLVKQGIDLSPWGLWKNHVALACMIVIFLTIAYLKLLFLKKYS
procedure.summary: biochemical

# compound, EC50 [µM]
records = [
    ("O=C1NC(=O)[C@@H](c2cn3c4c(cccc24)CCC3)[C@@H]1c1c[nH]c2ccccc12 [Tivantinib]", 6.76),
]
